Origin of measurements: the RepoRT retention time repository

# test-details: HILIC, HILICON iHILIC-(P) Classic, HILIC, PEEK, 100 × 2.1 mm, 5 µm, 40 °C, 0.2 mL/min, estimated dead time 1.1 min; A: water + 20 mM ammonium carbonate + 5 µM medronic acid; B: 10% water + 90% acetonitrile + 2 mM ammonium carbonate + 0.5 µM medronic acid; gradient (min/%B) 0/95 18/55 19/20 22/20 22.5/95 24/95 26/95
# measurement-context: stereoisomer not certain
property-measured: LC retention time (min)

Consider the reported LC retention time for these compounds:
{"compound": "O=P(O)(O)OCC1OC(O)C(O)C1O (configuration not stated) [Pentose-phosphate]", "LC retention time / min": 11.6}
{"compound": "NC(=O)CCC(N)C(=O)O (configuration not stated)", "LC retention time / min": 9.81}
{"compound": "O=C(O)CC(O)C(=O)O (configuration not stated)", "LC retention time / min": 11.9}
{"compound": "NC(=O)C1=CN(C2OC(COP(=O)(O)OP(=O)(O)OCC3OC(n4cnc5c(N)ncnc54)C(O)C3O)C(O)C2O)C=CC1 (configuration not stated)", "LC retention time / min": 9.08}
{"compound": "O=C(CO)C(O)C(O)C(O)COP(=O)(O)O (configuration not stated) [Fructose 6-phosphate]", "LC retention time / min": 11.9}
{"compound": "O=C(CO)COP(=O)(O)O [Triose phosphate]", "LC retention time / min": 11.8}
{"compound": "NC(CC(=O)O)C(=O)O (configuration not stated)", "LC retention time / min": 10.2}
{"compound": "O=C(O)CC(C(=O)O)C(O)C(=O)O (configuration not stated)", "LC retention time / min": 15.5}

a = NCCCCC(N)C(=O)O (configuration not stated)
b = Nc1ncnc2c1ncn2C1OC(COP(=O)(O)O)C(O)C1O (configuration not stated)
Request: Decide: a or b , by lowest recorded LC retention time. # reply format: chosen label
Result: b

P = CC(=O)SCCNC(=O)CCNC(=O)C(O)C(C)(C)COP(=O)(O)OP(=O)(O)OCC1OC(n2cnc3c(N)ncnc32)C(O)C1OP(=O)(O)O (configuration not stated)
Q = CC(O)C(=O)O (configuration not stated)
Request: Decide: P or Q , by lowest recorded LC retention time. # reply format: chosen label
Result: Q

###

# test-details: HILIC, HILICON iHILIC-(P) Classic, HILIC, PEEK, 100 × 2.1 mm, 5 µm, 40 °C, 0.2 mL/min, estimated dead time 1.1 min; A: water + 20 mM ammonium carbonate + 5 µM medronic acid; B: 10% water + 90% acetonitrile + 2 mM ammonium carbonate + 0.5 µM medronic acid; gradient (min/%B) 0/95 18/55 19/20 22/20 22.5/95 24/95 26/95
# measurement-context: stereoisomer not certain
property-measured: LC retention time (min)

Consider the reported LC retention time for these molecules:
{"molecule": "NC(=O)C1=CN(C2OC(COP(=O)(O)OP(=O)(O)OCC3OC(n4cnc5c(N)ncnc54)C(OP(=O)(O)O)C3O)C(O)C2O)C=CC1 (stereo not given)", "LC retention time, min": 15.2}
{"molecule": "O=C(O)CCC(=O)O", "LC retention time, min": 11.2}
{"molecule": "NC(N)=NCCCC(N)C(=O)O (stereo not given)", "LC retention time, min": 18.5}

I = O=P(O)(O)OCC1OC(O)(COP(=O)(O)O)C(O)C1O (stereo not given) [Fructose-1,6-bisphosphate]
II = O=P(O)(O)OCC(O)CO (stereo not given) [Glycerol-3-phosphate]
Request: Decide: I or II , by lowest recorded LC retention time. # reply format: chosen label
Result: II
(II: 10.8 min, I: 16.4 min)
